Value source: patent US20250027068

- tested-system: pooled human IgG (human IgG1, 2, 3 and 4)
measurement-label: Enzyme Activity Endpoint Assay: Fc

protein	measurement-label	meas-value
PRT-390 (protein) MVTSVWTKGVTPPTNFTYGEDVLHAPYVANQGWYDITKTFNGKDDLLCGAATAGNMLHWWFDQNKEQIENYLKKHPEKQKINFNGEQLFDVKEAIDTKDSQLDSKLFEYFKEKAFPYLSTKHLGVFPDHVIDMFINGYRLSLTNHGPTPVKRGSKDPRGGIFDAVFTRGDQSKLLTNRHDFKEKTLKEISDLIKQELTEGKALGISHTYANVRINHVINLWGADFDAEGNLEAIYVTDSDSNASIGMKKYFVGVNSNGKVAISAKEIEEDNIGAQVLGLFTLSTGQDIWNQTN	Enzyme Activity Endpoint Assay: Fc	371 ng/µL
PRT-261 (protein) MVTSVWTKGVTPPTNFTYGEDVLHAPYVANQGWYDITKLFNGKDNLLCGAATAGNMLHWWFDQNKEQIENYLKKHPEKQKINFNGEQLFDVKEAIDTKDSQLDSKLFDYFKEKAFPNLSTKHLGVFPDHVIDMFINGYRLSLLNHGPTPVKRGSKDKRGGIFDAVFTRGVQSKLLTNRHDFKEKTLKEISDLIKQELTEGKALGISHTYANGRINHVINLWGADFDAEGNLEAIYVTDSDTNPSIGMKKYFVGVNSSGKVAISAKEIEEDNIGAQVLGLFTLSTGQDIWNQTN	Enzyme Activity Endpoint Assay: Fc	76 ng/µL
PRT-391 (protein) MVTSVWTKGVTPPTNFTYGEDVLHAPYVANQGWYDITKTFNGKDDLLCGAATAGNMLHWWFDQNKEQIENYLKKHPEKQKINFNGEQMFDVKEAIDTKDSQLDSKLFEYFKEKAFPYLSTKHLGVFPDHVIDMFINGYRLSLTNHGPTPVKRGSKDKRGGIFDAVFTRGDQSKLLTNRHDFKEKTLKEISDLIKQELTEGKALGISHTYANVRINHVINLWGADFDAEGNLEAIYVTDSDSNASIGMKKYFVGVNSNGKVAISAKEIEEDNIGAQVLGLFTLSTGQDIWNQTN	Enzyme Activity Endpoint Assay: Fc	361 ng/µL
PRT-602 (protein) MANQEIRYSEVTPYHITSVWTKGVTPPANFTQGEDVFHAPYVANQGWYDITKTFNGKDDLLCGAATAGNMLHWWFDQNKDQIERYLEEHPEKQKINFNGEQMFDVKEAIDTKDSQTDSKLFEYFKEKAFPYLSTKHLGVFPDHVIDMFINGYRLSLTNHGPTPVKEGSKDPRGGIFDAVFTRGDQSKLLTSRHDFKEKTLKEISDLIKQELTEGKALGLSHTYANVRINHVINLWGADFDSEGNLKAIYVTDSDSNASIGMKKYYVGVNSAGKVAISAKEIEEDNIGAQVLGLFTLSTGQDIWNQTNLEHHHHHH	Enzyme Activity Endpoint Assay: Fc	375 ng/µL
